test_target: UniProt:P07683
Sequence (P07683 26-604): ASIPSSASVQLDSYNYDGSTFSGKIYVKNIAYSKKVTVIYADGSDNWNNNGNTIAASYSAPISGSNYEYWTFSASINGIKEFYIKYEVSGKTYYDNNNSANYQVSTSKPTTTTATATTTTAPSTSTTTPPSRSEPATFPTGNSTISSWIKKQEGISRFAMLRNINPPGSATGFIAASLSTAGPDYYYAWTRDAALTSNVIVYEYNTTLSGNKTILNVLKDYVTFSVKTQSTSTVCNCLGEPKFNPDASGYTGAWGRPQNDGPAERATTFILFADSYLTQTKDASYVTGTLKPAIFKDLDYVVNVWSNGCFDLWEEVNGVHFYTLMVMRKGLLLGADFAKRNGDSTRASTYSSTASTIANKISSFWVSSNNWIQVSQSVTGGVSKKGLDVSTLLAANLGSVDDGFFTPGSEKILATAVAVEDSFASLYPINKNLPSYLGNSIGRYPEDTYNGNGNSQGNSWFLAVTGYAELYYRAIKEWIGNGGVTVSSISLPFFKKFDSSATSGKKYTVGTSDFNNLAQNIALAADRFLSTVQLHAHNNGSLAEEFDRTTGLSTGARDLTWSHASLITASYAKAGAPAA
protocol: Inhibition of α-1,4-glucanglucohydrolase (glucoamylase), soluble starch substrate
Type: biochemical
experimental_parameters: at 200 μg/ml (printed >200 μg/ml); read-out: percent inhibition at parenthesized concentration
Below, each entry is listed with its recorded inhibition at 200 µg/mL.
quantity_measured: inhibition at 200 µg/mL (%)

substance_smiles=OC[C@H]1NC[C@H](O)[C@@H](O)[C@@H]1O[C@H]1O[C@H](CO)[C@@H](O[C@H]2O[C@H](CO)[C@@H](O[C@H]3O[C@H](CO)[C@@H](O)[C@H](O)[C@H]3O)[C@H](O)[C@H]2O)[C@H](O)[C@H]1O test_target=UniProt:P07683 quantity_measured="inhibition at 200 µg/mL" experimental_value=0
substance_smiles=OC[C@H]1NC[C@H](O)[C@@H](O)[C@@H]1O[C@H]1O[C@H](CO)[C@@H](O[C@H]2O[C@H](CO)[C@@H](O[C@H]3O[C@H](CO)[C@@H](O[C@H]4O[C@H](CO)[C@@H](O)[C@H](O)[C@H]4O)[C@H](O)[C@H]3O)[C@H](O)[C@H]2O)[C@H](O)[C@H]1O test_target=UniProt:P07683 quantity_measured="inhibition at 200 µg/mL" experimental_value=0
substance_smiles=OC[C@H]1NC[C@H](O)[C@@H](O)[C@@H]1O[C@H]1O[C@H](CO)[C@@H](O[C@H]2O[C@H](CO)[C@@H](O)[C@H](O)[C@H]2O)[C@H](O)[C@H]1O test_target=UniProt:P07683 quantity_measured="inhibition at 200 µg/mL" experimental_value=0
substance_smiles=OC[C@H]1NC[C@H](O)[C@@H](O)[C@@H]1O[C@H]1O[C@H](CO)[C@@H](O)[C@H](O)[C@H]1O test_target=UniProt:P07683 quantity_measured="inhibition at 200 µg/mL" experimental_value=15
